target: MELK (Homo sapiens); assay: Kinase assay: MELK activity, phosphorylation of FITC-labeled histone H3 peptide measured by IMAP fluorescence polarization; assay type: biochemical; conditions: 50 micro-M ATP, FITC-labeled histone H3 peptide substrate, IMAP fluorescence polarization; read-out: IC50 (μM) (kinase assay)
VALUE KIND: IC50 (µM)
Report as a plain number; the unit µM is understood.

INPUT: Returns the measured IC50 for the input molecule. Input: `CC(C)C(=O)c1cnc2ccc(-c3ccc(C#N)nc3)cc2c1N[C@H]1CC[C@H](N)CC1`
OUTPUT: 0.03

---

biological target: MELK (Homo sapiens, UniProt Q14680); assay: Kinase assay: MELK activity, phosphorylation of FITC-labeled histone H3 peptide measured by IMAP fluorescence polarization; assay type: biochemical; conditions: read-out: IC50 (μM) (kinase assay)
Sequence (Q14680 whole entry, looked up): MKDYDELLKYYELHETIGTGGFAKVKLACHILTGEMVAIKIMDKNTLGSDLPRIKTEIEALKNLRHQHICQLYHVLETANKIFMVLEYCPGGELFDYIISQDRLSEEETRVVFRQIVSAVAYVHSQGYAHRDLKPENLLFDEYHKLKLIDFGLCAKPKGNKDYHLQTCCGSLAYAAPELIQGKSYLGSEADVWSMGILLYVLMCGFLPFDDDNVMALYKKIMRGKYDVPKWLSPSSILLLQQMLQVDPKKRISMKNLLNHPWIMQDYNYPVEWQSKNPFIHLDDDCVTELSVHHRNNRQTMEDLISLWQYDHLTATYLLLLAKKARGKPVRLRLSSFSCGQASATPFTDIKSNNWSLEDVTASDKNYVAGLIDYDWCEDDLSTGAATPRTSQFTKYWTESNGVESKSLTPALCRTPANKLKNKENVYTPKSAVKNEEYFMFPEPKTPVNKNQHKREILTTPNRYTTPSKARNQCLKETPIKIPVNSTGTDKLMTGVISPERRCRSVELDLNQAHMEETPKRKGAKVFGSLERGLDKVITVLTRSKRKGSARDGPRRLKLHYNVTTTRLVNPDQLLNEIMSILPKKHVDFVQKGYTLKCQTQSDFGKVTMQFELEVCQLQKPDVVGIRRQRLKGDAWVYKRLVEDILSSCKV
VALUE KIND: log10 of IC50 (log10 of the value in µM)
In our notation, the value equals log10 of IC50 in µM.

Solved cases below.
CCC(=O)c1cnc2ccc(-c3cc(Cl)c(O)c(Cl)c3)cc2c1Nc1ccc(N2CCN(C)CC2)nc1 : -1.26
O=C(c1cnc2ccc(-c3cc(F)c(O)c(Cl)c3)cc2c1N[C@H]1C[C@H]2CC[C@@H](C1)N2)C1CC1 : -2.00
NC1CCN(c2ccc(Nc3c(C(=O)C4CC4)cnc4ccc(-c5cc(Cl)c(O)c(Cl)c5)cc34)cn2)C1 (stereo not shown) : -2.51
CN(C)C[C@H]1CC[C@@H](Nc2c(C(=O)C3CC3)cnc3ccc(-c4cc(Cl)c(O)c(Cl)c4)cc23)CC1 : -2.68
COc1cc(-c2ccc3ncc(C(=O)C4CC4)c(Nc4ccc(NCCN(C)C)nc4)c3c2)cc(Cl)c1O : -2.54
CCC(=O)c1cnc2ccc(-c3cc(Cl)c(O)c(OC)c3)cc2c1Nc1ccc(CN(C)C)cc1 : -2.31

INPUT: Returns the measured log10 of IC50 for the input compound. Input: COc1cc(-c2ccc3ncc(C(=O)C4CC4)c(NC4C[C@H]5CC[C@@H](C4)N5)c3c2)cc(Cl)c1O (stereo partly shown)
OUTPUT: -2.38

---

target: MELK (Homo sapiens, UniProt Q14680); assay: Kinase assay: MELK activity, phosphorylation of FITC-labeled histone H3 peptide measured by IMAP fluorescence polarization; assay type: biochemical; conditions: read-out: IC50 (μM) (kinase assay)
As shown below, each of these molecules has a reported IC50 value.
Report as a plain number; the unit µM is understood.

Solved cases below.
CCCC(=O)c1cnc2ccc(-c3cc(Cl)c(O)c(Cl)c3)cc2c1Nc1ccc(N2CCNCC2)nc1 [Example 625] : 0.15
COc1cc(-c2ccc3ncc(C(=O)C4CC4)c(Nc4ccc(CN5CCC(N(C)C)C5)cc4)c3c2)cc(Cl)c1O (centres unmarked) [Example 697] : 0.0084
CC(=O)c1cnc2ccc(-c3cc(F)c(O)c(Cl)c3)cc2c1N[C@@H]1CCC[C@@H](CN(C)C)C1 [Example 751] : 0.0067
COc1cc(-c2ccc3ncc(C(=O)C4CC4)c(N[C@H]4CC[C@H](CN5CCN(C)CC5)CC4)c3c2)cc(Cl)c1O [Example 637] : 0.0035

INPUT: Returns the measured IC50 for the input molecule. Input: CN(C)Cc1ccc(Nc2c(C(=O)C3CC3)cnc3cc(F)c(-c4cc(Cl)c(O)c(Cl)c4)cc23)cc1 [Example 547]
OUTPUT: 0.02

---

biological target: MELK (Homo sapiens, UniProt Q14680); test: Kinase assay: MELK activity, phosphorylation of FITC-labeled histone H3 peptide measured by IMAP fluorescence polarization; format: biochemical; conditions: 50 micro-M ATP, FITC-labeled histone H3 peptide substrate, IMAP fluorescence polarization; read-out: IC50 (μM) (kinase assay)
Structures can show the parent of a compound that is named as a salt.
As shown below, each of these compounds has a reported IC50 value.

Solved cases below.
CCN(CC)C1CCC(Nc2c(S(C)(=O)=O)cnc3ccc(-c4cc(Cl)c(O)c(OC)c4)cc23)CC1 (stereo not shown) [Example 240, dihydrochloride] : 0.0053 µM
CC(C1CCN(c2c(C(=O)C3CC3)cnc3ccc(-c4cc(F)c(O)c(Cl)c4)cc23)CC1)N(C)C (stereo not shown) [Example 269] : 0.0037 µM

INPUT: Returns the measured IC50 for the input compound. Input: CN(C)C[C@H]1CC[C@H](Nc2c(S(C)(=O)=O)cnc3ccc(-c4ccc(O)c(Cl)c4)cc23)CC1 [Example 424]
OUTPUT: 0.013 µM

INPUT: Next record, please: CCOc1cc(-c2ccc3ncc(C(=O)C4CC4)c(N4CCC(CN(C)C)CC4)c3c2)cc(Cl)c1O [Example 457]
OUTPUT: 0.0024 µM

INPUT: Next record, please: N[C@H]1CC[C@H](Nc2c(C(=O)C3CC3)cnc3ccc(-c4cc(Cl)c(O)cc4Cl)cc23)CC1 [Example 160]
OUTPUT: 0.072 µM

INPUT: Next record, please: COc1cc(-c2ccc3ncc(C(C)=O)c(N[C@H]4CC[C@H](CN(C)C)CC4)c3c2)cc(Cl)c1O [Example 392]
OUTPUT: 0.0034 µM

INPUT: Next record, please: CN(C)C[C@H]1CC[C@H](Nc2c(S(C)(=O)=O)cnc3ccc(-c4cc(Cl)c(O)c(Cl)c4)cc23)CC1 [Example 421]
OUTPUT: 0.0017 µM

---

tested on: T47D cells; experiment: Cell-based assay: anti-proliferative activity, Cell Counting Kit-8, 72 hours (T47D); conditions: Homo sapiens, T47D, 72 h
Label True when IC50 is strictly below 0.3 µM; at or above that, label False.

Completed entries (count: 2):
O=C(c1cnc2ccc(-c3cc(F)c(O)c(Cl)c3)cc2c1NC1CCNCC1)C1CC1 [Example 719] : False
CCCC(=O)c1cnc2ccc(-c3cc(Cl)c(O)c(OC)c3)cc2c1Nc1ccc(N2CCNCC2)nc1 [Example 617] : False

INPUT: Identify whether the compound O=C(c1cnc2ccc(-c3cc(Cl)c(O)c(Cl)c3)cc2c1Nc1cnn(C2CCNCC2)c1)C1CC1 [Example 511] records IC50 below 0.3 µM.
OUTPUT: True

INPUT: Next record, please: COc1cc(-c2ccc3ncc(C(=O)C4CC4)c(-c4cn[nH]c4)c3c2)cc(Cl)c1O [Example 536]
OUTPUT: False

INPUT: Next record, please: CN(C)Cc1cccc(Nc2c(C(=O)C3CC3)cnc3ccc(-c4cc(F)c(O)c(Cl)c4)cc23)c1 [Example 629]
OUTPUT: False

INPUT: Next record, please: CN(CC#N)C[C@H]1CC[C@@H](Nc2c(C(=O)C3CC3)cnc3ccc(-c4cc(F)c(O)c(Cl)c4)cc23)CC1 [Example 524]
OUTPUT: True

INPUT: Next record, please: O=C(c1cnc2ccc(-c3cc(F)c(O)c(Cl)c3)cc2c1N1CCN(CCN2CCCC2)CC1)C1CC1 [Example 402]
OUTPUT: False

---

tested on: HT-1197 cells; experiment: Cell-based assay: anti-proliferative activity, Cell Counting Kit-8, 72 hours (HT-1197, negative control without MELK expression); details: Homo sapiens, HT1197, 72 h, HT1197 cells (negative control), 72 hours
Counter-ions that a name gives are not always drawn.
VALUE KIND: IC50 (µM)
Report as a plain number; the unit µM is understood.

Solved cases below.
CS(=O)(=O)c1cnc2ccc(-c3cc(F)c(O)c(Cl)c3)cc2c1Nc1ccc(N2CCCC(N)C2)nc1 (stereo not shown) : 10
COc1cc(-c2ccc3ncc(C(=O)C4CC4)c(Nc4cccc(CN(C)C)c4)c3c2)cc(Cl)c1O : 5.5
CN1CCN(c2c(C(=O)C3CC3)cnc3ccc(-c4cc(F)c(O)c(Cl)c4)cc23)CC1 : 2.8
CC(N)C(=O)N[C@H]1CC[C@H](Nc2c(C(=O)C(C)(C)C)cnc3ccc(-c4cc(Cl)c(O)c(Cl)c4)cc23)CC1 (stereo partly shown) [Example 928, hydrochloride] : 8.1
O=C(c1cnc2ccc(-c3cc(Cl)c(O)c(Cl)c3)cc2c1Nc1ccc(NC2CCCNC2)nc1)C1CC1 (stereo not shown) : 10
CN1CCC(n2cc(Nc3c(S(C)(=O)=O)cnc4ccc(-c5cc(Cl)c(O)c(Cl)c5)cc34)cn2)CC1 [Example 899, hydrochloride] : 10

Please examine the following record next.
INPUT: Returns the measured IC50 for the input compound. Input: `COc1cc(-c2ccc3ncc(C(=O)C4CC4)c(N4CCN(C)CC4)c3c2)cc(Cl)c1O`
OUTPUT: 2.6

---

As shown below, each of these compounds has a reported IC50 value.
biological target: MELK (Homo sapiens); assay: Kinase assay: MELK activity, phosphorylation of FITC-labeled histone H3 peptide measured by IMAP fluorescence polarization; assay type: biochemical; conditions: read-out: IC50 (μM) (kinase assay)
Counter-ions that a name gives are not always drawn.
Report as a plain number; the unit µM is understood.

Solved cases below.
O=C(c1cnc2ccc(-c3cc(F)c(O)c(Cl)c3)cc2c1Nc1ccc(CN2CCCC2)nc1)C1CC1 [Example 672] : 0.014
COc1cc(-c2ccc3ncc(C(=O)C4CC4)c(N[C@H]4CC[C@@H](CN(C)C)CC4)c3c2)cc(Cl)c1O [Example 513] : 0.002

INPUT: Returns the measured IC50 for the input compound. Input: COc1cc(-c2ccc3ncc(C(C)=O)c(N4CCN(C(=O)CN(C)C)CC4)c3c2)cc(Cl)c1O [Example 477]
OUTPUT: 0.0016

INPUT: Next record, please: CNC1CCCN(c2ccc(Nc3c(C(=O)C4CC4)cnc4ccc(-c5cc(Cl)c(O)c(Cl)c5)cc34)cn2)C1 (stereo not shown) [Example 807, trihydrochloride]
OUTPUT: 0.0015
